- Test system: CAF#7 (primary prostate cancer-associated fibroblasts of myCAF-like type)
- assay_name: drug sensitivity score (DSS2, normalised partial AUC of dose-response, 72 h CellTiter-Glo viability) (DSS (dimensionless)); higher = more sensitive (stronger growth inhibition / cytotoxicity); extreme values may be limits of the assay
Classification field: enter 1 (yes) for drug sensitivity score values not below 5, 0 (no) for values below it.

Ask: Please indicate if the recorded drug sensitivity score for CCc1c(C(=O)C(N)=O)c2c(OCC(=O)O)cccc2n1Cc1ccccc1 [Varespladib] (tested concentration range 1-10000 nM) meets or exceeds 5.
Reply: 0 (no)

Ask: Record CC[C@H](CC#N)OC(=O)N[C@@H](C)c1cccc(NC(=O)Nc2ccc(-c3cnco3)c(OC)c2)c1 [AVN944] (tested concentration range 1-10000 nM) ; criterion: drug sensitivity score no lower than 5. Met?
Reply: 1 (yes)

Ask: Determine whether measured drug sensitivity score meets or exceeds 5 for CC1(COc2ccc3c(c2)ncn3-c2ccc3cccc(N4CCC(N)CC4)c3n2)COC1 [Crenolanib] (tested concentration range 1-10000 nM)
Reply: 0 (no)

Ask: Item CN(C)Cc1ccc(S(=O)(=O)n2ccc(/C=C/C(=O)NO)c2)cc1 [Resminostat] (tested concentration range 1-10000 nM) with drug sensitivity score of 5 or above?
Reply: 0 (no)

Ask: Form field: drug sensitivity score at least 5? Entry: CNC(=O)c1cccc2cc(Oc3ccnc4cc(OCC5(N)CC5)c(OC)cc34)ccc12 [Lucitanib] (tested concentration range 1-10000 nM)
Reply: 1 (yes)

Ask: Does CC(C)(C#N)c1cc(Cn2cncn2)cc(C(C)(C)C#N)c1 [Anastrozole] (tested concentration range 1-10000 nM) have a reported drug sensitivity score of at least 5?
Reply: 0 (no)

All figures here come from the supplement of paper PMC12592484.
